# Tested on: G-CSF promoter
# Assay details: G-CSF promoter/luciferase reporter assay (high-throughput screen I), G21 cells
# Test settings: transcriptional inhibitors, Table 2; 6 h incubation
Observation type: GCSF fold inhibition relative to solvent control (fold)
Numbers only, in fold.

Solved entries:
> print(dat)
                             molecule  assayed.system  endpoint.value
1                      OCc1cccc(Cl)c1  G-CSF promoter            4.76
2                  CCCCCCCCCCCCCCCCBr  G-CSF promoter            0.51
3    O=C(O)c1cc(C(F)(F)F)ccc1C(F)(F)F  G-CSF promoter            0.54
4  O=P(O)(O)Oc1c[nH]c2ccc(Br)c(Cl)c12  G-CSF promoter            0.90

The following molecules each have a reported value; give each one's GCSF fold inhibition relative to solvent control.
1. Cc1c(C(=O)O)c(O)cc2c1C(=O)c1c(O)c([C@@H]3O[C@H](CO)[C@@H](O)[C@H](O)[C@H]3O)c(O)c(O)c1C2=O [Chemical 1770]
2. CC(=O)NCCCC[C@H](NC(C)=O)C(=O)O
3. N#Cc1cccc(Br)c1
4. O=C(c1ccc(O)c(O)c1)c1c(O)cc(O)cc1O

[0.54, 0.64, 0.76, 10.0]
